- target.or.test.system: human topo IIα (Homo sapiens)
- Construct: purchased Inspiralis (Norwich, UK)
- assay.text: competitive ATPase assay at different ATP concentrations
- Assay type: biochemical
- recorded.conditions: c(ATP) 0.75
attribute.measured: IC50

record.smiles: Cc1nc(N)sc1-c1csc(Nc2ccc(C(F)(F)F)cc2)n1
target.or.test.system: human topo IIα (Homo sapiens)
attribute.measured: IC50
value.observed: 17.8 µM

---

- Tested on: MCF-7 cells
- assay.text: MTS cytotoxicity assay, MCF-7
- Format: cell-based, human
- recorded.conditions: Homo sapiens, MCF7, read-out: EC50 [µM] MCF-7 (24h); 24h exposure; interval in brackets
Friendly reminder: EC50 below 60 µM is yes, at or above is no.

compound: CC(=O)Nc1nc(C)c(-c2csc(Nc3cccc(O)c3)n2)s1
label.class: yes
//
compound: CC(=O)Nc1nc(C)c(-c2csc(Nc3ccccc3)n2)s1
label.class: yes
//
compound: Cc1nc(N)sc1-c1csc(Nc2ccc(C(F)(F)F)cc2)n1
label.class: no
//
compound: CC(=O)Nc1ccc(Nc2nc(-c3sc(NC(C)=O)nc3C)cs2)cc1
label.class: yes
//
compound: COc1cc([C@@H]2c3cc4c(cc3[C@@H](O[C@@H]3O[C@@H]5CO[C@@H](C)O[C@H]5[C@H](O)[C@H]3O)[C@H]3COC(=O)[C@H]23)OCO4)cc(OC)c1O [Etoposide, etoposide, reference compound]
label.class: no
//
compound: COc1ccc(Nc2nc(-c3sc(NC(C)=O)nc3C)cs2)cc1
label.class: yes

---

Listed here: items and their measured log10 of IC50.
- target.or.test.system: human topo IIα (Homo sapiens, UniProt P11388)
- Construct: purchased Inspiralis (Norwich, UK)
- Sequence (P11388 whole entry): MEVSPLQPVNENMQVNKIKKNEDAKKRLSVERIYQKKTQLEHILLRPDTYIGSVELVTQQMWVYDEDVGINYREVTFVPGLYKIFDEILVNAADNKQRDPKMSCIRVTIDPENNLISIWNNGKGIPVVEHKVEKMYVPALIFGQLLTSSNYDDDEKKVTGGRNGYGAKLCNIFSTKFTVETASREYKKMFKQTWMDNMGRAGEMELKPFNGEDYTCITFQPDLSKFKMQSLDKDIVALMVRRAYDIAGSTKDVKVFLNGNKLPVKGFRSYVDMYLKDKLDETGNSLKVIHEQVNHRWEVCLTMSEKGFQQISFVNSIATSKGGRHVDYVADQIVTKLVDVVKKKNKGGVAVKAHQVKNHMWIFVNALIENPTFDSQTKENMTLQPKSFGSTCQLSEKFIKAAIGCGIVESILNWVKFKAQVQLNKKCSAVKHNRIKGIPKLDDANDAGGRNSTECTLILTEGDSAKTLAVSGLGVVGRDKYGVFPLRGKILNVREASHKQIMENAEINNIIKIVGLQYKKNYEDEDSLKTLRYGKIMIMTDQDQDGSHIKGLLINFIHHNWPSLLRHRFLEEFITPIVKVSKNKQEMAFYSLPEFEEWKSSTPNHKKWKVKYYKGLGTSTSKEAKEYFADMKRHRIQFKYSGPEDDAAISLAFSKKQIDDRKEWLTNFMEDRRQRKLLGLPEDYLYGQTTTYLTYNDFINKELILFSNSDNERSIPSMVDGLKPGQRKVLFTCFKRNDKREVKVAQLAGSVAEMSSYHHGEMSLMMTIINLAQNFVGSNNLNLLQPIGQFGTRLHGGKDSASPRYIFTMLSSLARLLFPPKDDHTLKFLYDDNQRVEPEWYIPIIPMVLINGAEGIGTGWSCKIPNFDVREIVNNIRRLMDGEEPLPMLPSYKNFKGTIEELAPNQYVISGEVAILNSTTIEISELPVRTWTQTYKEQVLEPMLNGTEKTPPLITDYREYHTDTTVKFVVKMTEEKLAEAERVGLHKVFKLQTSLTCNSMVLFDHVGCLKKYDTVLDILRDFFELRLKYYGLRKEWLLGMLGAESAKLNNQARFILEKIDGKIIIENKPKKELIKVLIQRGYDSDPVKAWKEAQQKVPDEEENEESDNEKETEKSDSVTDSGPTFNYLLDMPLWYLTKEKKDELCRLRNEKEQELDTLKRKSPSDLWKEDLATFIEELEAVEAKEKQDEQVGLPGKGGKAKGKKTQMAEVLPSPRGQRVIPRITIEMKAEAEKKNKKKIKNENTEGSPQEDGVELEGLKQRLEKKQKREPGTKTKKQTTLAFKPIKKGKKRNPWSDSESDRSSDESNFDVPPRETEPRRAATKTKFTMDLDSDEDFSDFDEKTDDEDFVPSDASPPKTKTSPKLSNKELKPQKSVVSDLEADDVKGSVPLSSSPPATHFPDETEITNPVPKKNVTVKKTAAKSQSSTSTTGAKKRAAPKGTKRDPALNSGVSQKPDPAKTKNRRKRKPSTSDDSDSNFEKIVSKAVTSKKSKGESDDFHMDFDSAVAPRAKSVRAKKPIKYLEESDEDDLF
- assay.text: HTS relaxation assay of human topo IIα
- Assay type: biochemical
- recorded.conditions: screening at 7.8, 31.5, 125 and 500 µM
attribute.measured: log10 of IC50 (log10 of the value in µM)

record.smiles: Cc1cc(O)ccc1Nc1nc(-c2sc(N)nc2C)cs1
log10 of IC50: 1.55
//
record.smiles: Cc1nc(N)sc1-c1csc(Nc2ccc(C(F)(F)F)cc2)n1
log10 of IC50: 1.52
//
record.smiles: CC(=O)Nc1nc(C)c(-c2csc(Nc3ccccc3)n2)s1
log10 of IC50: 2.55
//
record.smiles: CC(=O)c1ccc(Nc2nc(-c3sc(N)nc3C)cs2)cc1
log10 of IC50: 2.35
//
record.smiles: Cc1nc(N)sc1-c1csc(Nc2ccc(C(=O)O)c(O)c2)n1
log10 of IC50: 1.58
//
record.smiles: Cc1cc(NS(=O)(=O)c2ccc(Nc3nc(-c4sc(N)nc4C)cs3)cc2)no1
log10 of IC50: 1.48
//
record.smiles: CCC(=O)Nc1nc(C)c(-c2csc(Nc3ccc(C(=O)O)cc3)n2)s1
log10 of IC50: 2.09
//
record.smiles: Cc1nc(NC(=O)c2ccccc2)sc1-c1csc(Nc2ccc(C(=O)O)cc2)n1
log10 of IC50: 1.10
//
record.smiles: CC(=O)Nc1nc(C)c(-c2csc(Nc3cccc(C(=O)O)c3)n2)s1
log10 of IC50: 2.13

Each recorded value in this set is attributed to patent EP3811940B1.
